protein stability index listing for selected variants.
B1: FAM9B (parent)
chain: EDLTAKRKRMKMDKTCSKTKNKSK

- Variants of: B1
- assay.overview: protein stability index of a GFP-peptide fusion (GPS, HEK-293T) (PSI 1-6); higher = more stable;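 note: lentivirally expressed fusions sorted by FACS into six bins by GFP to DsRed ratio, PSI derived from sequencing read proportions per bin multiplied by bin number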
- condition.parameters: c terminus: a fixed tail appended
experimental.readout: protein stability index

* C16G | 4.11
* M12L | 4.79
* C16A | 4.69
* T15H | 4.6
* K22G | 4.78
* T19R | 5.26
* R9Y | 5.29
* M12H | 5.44
* K22Y | 5.07
* K20L | 4.96
* R9P | 4.4
* K6F | 4.42
* K24C | 5.2
* D13I | 4.89
* K11L | 4.62
* K14N | 5.51
* N21K | 5.33
* N21W | 4.4
* D13S | 4.89
* N21D | 5.17
* K11W | 4.83
* K11D | 5.22
* K11S | 4.79
* T19S | 5.62
* D2S | 4.63
* E1Y | 3.72
* K22M | 4.47
* T4D | 5.5
* L3C | 5.09
* K22H | 5
* M10K | 5.31
* K14E | 5.07
* T4N | 4.8
* M12P | 5.61
* N21G | 4.78
* C16I | 4.71
* D13E | 5.57
* R7L | 4.87
* D13N | 5.3
* R7K | 5.16
* C16H | 4.66
